These measurements were taken from patent US8129355B2.

Target: GAL4 DBD-CfEcR(DEF)/VP16AD-MmRXRE (Choristoneura fumiferana)
Sequence (O77240 1-513): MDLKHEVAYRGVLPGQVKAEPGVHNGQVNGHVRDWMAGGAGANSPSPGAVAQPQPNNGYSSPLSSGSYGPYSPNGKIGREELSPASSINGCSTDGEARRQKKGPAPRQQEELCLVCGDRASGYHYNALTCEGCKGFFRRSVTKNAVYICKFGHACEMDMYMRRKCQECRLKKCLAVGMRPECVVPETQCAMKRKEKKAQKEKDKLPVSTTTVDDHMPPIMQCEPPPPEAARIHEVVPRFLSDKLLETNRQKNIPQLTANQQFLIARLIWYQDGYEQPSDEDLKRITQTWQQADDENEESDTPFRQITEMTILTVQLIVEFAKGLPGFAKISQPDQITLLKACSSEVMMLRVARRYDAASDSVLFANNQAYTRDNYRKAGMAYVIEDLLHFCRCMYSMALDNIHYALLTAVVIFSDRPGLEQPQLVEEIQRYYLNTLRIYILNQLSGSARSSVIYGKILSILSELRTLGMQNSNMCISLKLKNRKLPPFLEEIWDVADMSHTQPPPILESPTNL
Assay: cell-based
METRIC NAME: EC50

COMPOUND | MEASURED ON | READOUT VALUE
COc1cccc(C(=O)C2(NC(=O)c3cccc(OC)c3C)CCCCC2)c1 [Example 4] | GAL4 DBD-CfEcR(DEF)/VP16AD-MmRXRE (Choristoneura fumiferana) | 3.46 µM

Look up EC50 of CCC(CC)(NC(=O)c1cccc(OC)c1C)C(=O)c1ccc(F)cc1 [Example 38] and report it. > 33 µM

Look up EC50 of CCc1ccc(C(=O)NC2(C(=O)c3ccccc3)CCCC2)cc1 [Example 3] and report it. > 33 µM

Look up EC50 of COc1ccccc1C(=O)C(C)(NC(=O)c1cccc(OC)c1C)C(C)C (stereo not drawn) [Example 30] and report it. > 33 µM
